I'd appreciate it if you could supply pIC50 values for the items below.
Test system: A498 complex spheroids with HUVEC/MSC, growth
Test: Anticancer human tumor A498 cell line growth inhibition [AhR];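 note: seven day exposure starting three days after spheroid seeding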
Experimental parameters: curve of first compound; second compound 10 µM
pIC50: −log10 of the molar value.

For reference, reported pIC50 for CC[C@@]1(O)C(=O)OCc2c1cc1n(c2=O)Cc2cc3c(CN(C)C)c(O)ccc3nc2-1 + CC(CO)NC(=O)c1cc(-c2ccc(Cl)cc2)nn(-c2cnn(C)c2)c1=O stands at 7.12

For reference, reported pIC50 for Cn1ncnc1C1c2n[nH]c(=O)c3cc(F)cc(c23)NC1c1ccc(F)cc1 (stereo not drawn) + Cc1ccccc1N=Nc1ccc(NC(=O)c2ccnn2C)c(C)c1 stands at < 7.00

For reference, reported pIC50 for Cn1ncnc1C1c2n[nH]c(=O)c3cc(F)cc(c23)NC1c1ccc(F)cc1 (stereo not drawn) + CC(CO)NC(=O)c1cc(-c2ccc(Cl)cc2)nn(-c2cnn(C)c2)c1=O stands at < 7.00

For reference, reported pIC50 for CC1COCCN1c1cc(-c2ccnn2C)c2ccnc(-c3ccn[nH]3)c2n1 (stereo not drawn) + Cc1ccccc1N=Nc1ccc(NC(=O)c2ccnn2C)c(C)c1 stands at 7.07

For reference, reported pIC50 for CCN(c1cc(-c2ccc(CN3CCOCC3)cc2)cc(C(=O)NCc2c(C)cc(C)[nH]c2=O)c1C)C1CCOCC1 + Cc1ccccc1N=Nc1ccc(NC(=O)c2ccnn2C)c(C)c1 stands at < 5.52

For reference, reported pIC50 for COc1cccc2c1C(=O)c1c(O)c3c(c(O)c1C2=O)CC(O)(C(=O)CO)CC3OC1CC(N)C(O)C(C)O1 (stereo not drawn) + Cc1cncc(-c2nc(NCCc3c[nH]c4ccccc34)c3ncn(C(C)C)c3n2)c1 stands at > 7.50

For reference, reported pIC50 for Nc1ncn(C2CC(O)C(CO)O2)c(=O)n1 (stereo not drawn) + CC(CO)NC(=O)c1cc(-c2ccc(Cl)cc2)nn(-c2cnn(C)c2)c1=O stands at < 6.00

For reference, reported pIC50 for CCN(c1cc(-c2ccc(CN3CCOCC3)cc2)cc(C(=O)NCc2c(C)cc(C)[nH]c2=O)c1C)C1CCOCC1 + Cc1cncc(-c2nc(NCCc3c[nH]c4ccccc34)c3ncn(C(C)C)c3n2)c1 stands at > 8.02

For reference, reported pIC50 for COc1cc(Nc2ncc3c(n2)-c2ccc(Cl)cc2C(c2c(F)cccc2OC)=NC3)ccc1C(=O)O + CC(CO)NC(=O)c1cc(-c2ccc(Cl)cc2)nn(-c2cnn(C)c2)c1=O stands at 6.34

For reference, reported pIC50 for Nc1ncn(C2CC(O)C(CO)S2)c(=O)n1 (stereo not drawn) + Cc1cncc(-c2nc(NCCc3c[nH]c4ccccc34)c3ncn(C(C)C)c3n2)c1 stands at > 9.02

For reference, reported pIC50 for Nc1ccccc1NC(=O)c1ccc(CNC(=O)OCc2cccnc2)cc1 + CC(CO)NC(=O)c1cc(-c2ccc(Cl)cc2)nn(-c2cnn(C)c2)c1=O stands at 6.49

For reference, reported pIC50 for Nc1ccn(C2OC(CO)C(O)C2(F)F)c(=O)n1 (stereo not drawn) + Cc1ccccc1N=Nc1ccc(NC(=O)c2ccnn2C)c(C)c1 stands at > 7.50

For reference, reported pIC50 for CC1(C)CCC(CN2CCN(c3ccc(C(=O)NS(=O)(=O)c4ccc(NCC5CCOCC5)c([N+](=O)[O-])c4)c(Oc4cnc5[nH]ccc5c4)c3)CC2)=C(c2ccc(Cl)cc2)C1 + CC(CO)NC(=O)c1cc(-c2ccc(Cl)cc2)nn(-c2cnn(C)c2)c1=O stands at 5.42

====

Test system: A498 complex spheroids with HUVEC/MSC, growth
Test: Anticancer human tumor A498 cell line growth inhibition [AhR]; active means viability on the fitted dose curve at most 10% of control; inactive means the rest;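 note: seven day exposure starting three days after spheroid seeding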
Experimental parameters: second compound 1 µM; first compound 0.3 µM
Hi there, use one of these labels in your reply, thanks! 1 for active, 0 for inactive

q: # fetch the recorded call for Nc1ncn(C2CC(O)C(CO)S2)c(=O)n1 (stereo unspecified) + Cc1ccccc1N=Nc1ccc(NC(=O)c2ccnn2C)c(C)c1 here
a: 0

q: # fetch the recorded call for O=C(C=Cn1cnc(-c2cc(C(F)(F)F)cc(C(F)(F)F)c2)n1)NNc1cnccn1 + Cc1cncc(-c2nc(NCCc3c[nH]c4ccccc34)c3ncn(C(C)C)c3n2)c1 here
a: 0

q: # fetch the recorded call for CCN(c1cc(-c2ccc(CN3CCOCC3)cc2)cc(C(=O)NCc2c(C)cc(C)[nH]c2=O)c1C)C1CCOCC1 + Cc1cncc(-c2nc(NCCc3c[nH]c4ccccc34)c3ncn(C(C)C)c3n2)c1 here
a: 0

q: # fetch the recorded call for CC(C)CC(NC(=O)C(Cc1ccccc1)NC(=O)c1cnccn1)B(O)O (stereo unspecified) + CC(CO)NC(=O)c1cc(-c2ccc(Cl)cc2)nn(-c2cnn(C)c2)c1=O here
a: 1

q: # fetch the recorded call for Nc1ncn(C2CC(O)C(CO)S2)c(=O)n1 (stereo unspecified) + Cc1cncc(-c2nc(NCCc3c[nH]c4ccccc34)c3ncn(C(C)C)c3n2)c1 here
a: 0

q: # fetch the recorded call for CC(C)CC(NC(=O)C(Cc1ccccc1)NC(=O)c1cnccn1)B(O)O (stereo unspecified) + Cc1cncc(-c2nc(NCCc3c[nH]c4ccccc34)c3ncn(C(C)C)c3n2)c1 here
a: 1

====

I'd appreciate it if you could supply pIC50 values for the items below.
System: A498 complex spheroids with HUVEC/MSC, growth
Test: Anticancer human tumor A498 cell line growth inhibition [AhR];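 note: seven day exposure starting three days after spheroid seeding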
Experimental parameters: curve of first compound; second compound 10 µM
pIC50: −log10 of the molar value.

For reference, reported pIC50 for O=C(C=Cc1cccc(S(=O)(=O)Nc2ccccc2)c1)NO + Cc1cncc(-c2nc(NCCc3c[nH]c4ccccc34)c3ncn(C(C)C)c3n2)c1 stands at > 7.50

For reference, reported pIC50 for Nc1ncn(C2CC(O)C(CO)S2)c(=O)n1 (configuration not stated) + CC(CO)NC(=O)c1cc(-c2ccc(Cl)cc2)nn(-c2cnn(C)c2)c1=O stands at < 6.52

For reference, reported pIC50 for COc1ccc([C@@H](O)c2cc(-c3ncnc4cc(N5CCOCC5)ccc34)c(F)cc2Cl)nn1 + Cc1ccccc1N=Nc1ccc(NC(=O)c2ccnn2C)c(C)c1 stands at 6.20

For reference, reported pIC50 for CC(C)CC(NC(=O)C(Cc1ccccc1)NC(=O)c1cnccn1)B(O)O (configuration not stated) + CC(CO)NC(=O)c1cc(-c2ccc(Cl)cc2)nn(-c2cnn(C)c2)c1=O stands at 8.80

For reference, reported pIC50 for CC[C@@]1(O)C(=O)OCc2c1cc1n(c2=O)Cc2cc3c(CN(C)C)c(O)ccc3nc2-1 + Cc1ccccc1N=Nc1ccc(NC(=O)c2ccnn2C)c(C)c1 stands at < 7.00

For reference, reported pIC50 for CC1COCCN1c1cc(C2(S(C)(=N)=O)CC2)nc(-c2ccnc3[nH]ccc23)n1 (configuration not stated) + Cc1cncc(-c2nc(NCCc3c[nH]c4ccccc34)c3ncn(C(C)C)c3n2)c1 stands at > 7.50

For reference, reported pIC50 for CC(C)c1c(-c2ccccc2)nc2c(C#N)c[nH]n2c1=O + Cc1cncc(-c2nc(NCCc3c[nH]c4ccccc34)c3ncn(C(C)C)c3n2)c1 stands at > 7.50

For reference, reported pIC50 for Cn1ncnc1C1c2n[nH]c(=O)c3cc(F)cc(c23)NC1c1ccc(F)cc1 (configuration not stated) + Cc1cncc(-c2nc(NCCc3c[nH]c4ccccc34)c3ncn(C(C)C)c3n2)c1 stands at > 9.50

For reference, reported pIC50 for CC[C@@]1(O)C(=O)OCc2c1cc1n(c2=O)Cc2cc3c(CN(C)C)c(O)ccc3nc2-1 + Cc1cncc(-c2nc(NCCc3c[nH]c4ccccc34)c3ncn(C(C)C)c3n2)c1 stands at > 9.50

For reference, reported pIC50 for O=C(C=Cc1cccc(S(=O)(=O)Nc2ccccc2)c1)NO + Cc1ccccc1N=Nc1ccc(NC(=O)c2ccnn2C)c(C)c1 stands at 5.75

For reference, reported pIC50 for CCc1c2c(nc3ccc(O)cc13)-c1cc3c(c(=O)n1C2)COC(=O)[C@]3(O)CC + Cc1cncc(-c2nc(NCCc3c[nH]c4ccccc34)c3ncn(C(C)C)c3n2)c1 stands at > 9.02

For reference, reported pIC50 for O=C(c1cc(Cc2n[nH]c(=O)c3ccccc23)ccc1F)N1CCN(C(=O)C2CC2)CC1 + CC(CO)NC(=O)c1cc(-c2ccc(Cl)cc2)nn(-c2cnn(C)c2)c1=O stands at < 5.00

====

System: A498 complex spheroids with HUVEC/MSC, growth
Test: Anticancer human tumor A498 cell line growth inhibition [AhR];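 note: seven day exposure starting three days after spheroid seeding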;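 for viability, T/C: luminescence signal used as a surrogate for viable cells; luminescence viability scaled so 100% equals DMSO vehicle wells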
Experimental parameters: second compound 0.316 µM; first compound 0.3 µM; stronger effect = lower value
Endpoint label: viability, T/C (%)
Your answer is read as %, so omit the unit and give the number.

For reference, reported viability, T/C for CCN(c1cc(-c2ccc(CN3CCOCC3)cc2)cc(C(=O)NCc2c(C)cc(C)[nH]c2=O)c1C)C1CCOCC1 + Cc1ccccc1N=Nc1ccc(NC(=O)c2ccnn2C)c(C)c1 stands at 96.8

For reference, reported viability, T/C for CC(C)CC(NC(=O)C(Cc1ccccc1)NC(=O)c1cnccn1)B(O)O (stereo not drawn) + Cc1ccccc1N=Nc1ccc(NC(=O)c2ccnn2C)c(C)c1 stands at 1.05

For reference, reported viability, T/C for O=C(C=Cn1cnc(-c2cc(C(F)(F)F)cc(C(F)(F)F)c2)n1)NNc1cnccn1 + CC(CO)NC(=O)c1cc(-c2ccc(Cl)cc2)nn(-c2cnn(C)c2)c1=O stands at 23.1

Values were extracted from PubChem BioAssay AID1919007.
